Assay method text: Evaluation of conversion rate to active form in buffer solution (Experimental Example 1)
Assay type: physicochemical
Condition: pH5.0, 3 hr
Assignment: determine reported Production rate of Alvocidib for the given compounds.
Numeric only. Scale: %

Please give the measured Production rate of Alvocidib for this compound: CNCCN(C)C(=O)Oc1cc(O)c2c(=O)cc(-c3ccccc3Cl)oc2c1[C@H]1CCN(C)C[C@H]1O [Comparative Example 14, reference compound]
68.5

How about CN1CC[C@H](c2c(O)cc(O)c3c(=O)cc(-c4ccccc4Cl)oc23)[C@H](OC(=O)CN)C1 [Comparative Example 8, reference compound] ?
25.7

How about C[C@H](N)C(=O)O[C@@H]1CN(C)CC[C@@H]1c1c(O)cc(O)c2c(=O)cc(-c3ccccc3Cl)oc12 [Comparative Example 7, reference compound] ?
21.9

How about CC(C)[C@H](N)C(=O)O[C@@H]1CN(C)CC[C@@H]1c1c(O)cc(O)c2c(=O)cc(-c3ccccc3Cl)oc12 [Comparative Example 10, reference compound] ?
4.2

How about CNC(=O)Oc1cc(O)c2c(=O)cc(-c3ccccc3Cl)oc2c1[C@H]1CCN(C)C[C@H]1O [Comparative Example 2, reference compound] ?
90.0

How about CN1CC[C@H](c2c(OC(=O)N(C)CCN)cc(O)c3c(=O)cc(-c4ccccc4Cl)oc23)[C@H](O)C1 [Comparative Example 13, reference compound] ?
12.3

How about CCNC(=O)O[C@@H]1CN(C)CC[C@@H]1c1c(O)cc(O)c2c(=O)cc(-c3ccccc3Cl)oc12 [Comparative Example 4, reference compound] ?
1.8

How about CCOC(=O)O[C@@H]1CN(C)CC[C@@H]1c1c(O)cc(O)c2c(=O)cc(-c3ccccc3Cl)oc12 [Comparative Example 3, reference compound] ?
1.2

How about CNC(=O)O[C@@H]1CN(C)CC[C@@H]1c1c(O)cc(O)c2c(=O)cc(-c3ccccc3Cl)oc12 [Comparative Example 5, reference compound] ?
0.0

How about CN1CC[C@H](c2c(O)cc(O)c3c(=O)cc(-c4ccccc4Cl)oc23)[C@H](OC(=O)[C@@H](N)CO)C1 [Comparative Example 9, reference compound] ?
15.6
